# target.system: D3 receptors (Rattus norvegicus, UniProt P19020)
# Sequence (P19020 whole entry): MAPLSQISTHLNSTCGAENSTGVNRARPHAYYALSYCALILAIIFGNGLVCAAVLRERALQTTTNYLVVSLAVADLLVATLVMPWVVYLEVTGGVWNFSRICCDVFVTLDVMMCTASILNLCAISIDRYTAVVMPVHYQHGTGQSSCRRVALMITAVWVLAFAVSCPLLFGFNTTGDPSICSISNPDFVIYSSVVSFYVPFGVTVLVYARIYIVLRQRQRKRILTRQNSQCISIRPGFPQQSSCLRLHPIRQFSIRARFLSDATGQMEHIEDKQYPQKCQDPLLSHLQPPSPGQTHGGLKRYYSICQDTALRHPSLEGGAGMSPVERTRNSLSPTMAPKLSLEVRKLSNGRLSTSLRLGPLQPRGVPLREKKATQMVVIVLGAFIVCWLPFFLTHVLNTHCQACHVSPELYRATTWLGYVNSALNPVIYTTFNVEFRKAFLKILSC
pKd: −log10 of the molar value.
assay.readout: pKd

> print(dat)
                                   compound  test.result
1  COc1ccccc1N1CCN(CCCCNC(=O)c2ccc(N(C)C)cc2)CC1 [[^3H]WC-10]         8.47
